Reference for the values: patent US9540338B2

Listing of recorded 50% Reaction Threshold, Group Administered with Test Substance, After Administration by entry.
test system: Chung model rat; assay: Analgesic efficacy test (2): Chung model rat, neuropathic pain model (allodynia, von Frey filament); assay type: in vivo, rats; settings: oral 10 mg/kg; measurement point 90 minute (action peak); mean ± standard error
Where a name gives a salt, the structure may show the parent alone. Marks after values point to notes of the source that are not given here.
measured metric: 50% Reaction Threshold, Group Administered with Test Substance, After Administration

compound="O=C(/C=C/c1ccccc1F)NCCN1CCNCC1 [Compound 16, dihydrochloride]" readout_value="7.48 ± 1.30 g"
compound=O=C(/C=C/c1ccccc1F)NCCc1c[nH]c2ccccc12 readout_value="14.06 ± 0.61* g"
compound=O=C(/C=C/c1ccccc1F)NCCCN1CCN(C2CCCCC2)CC1 readout_value="12.70 ± 1.16* g"
compound=Cl.O=C(/C=C/c1ccccc1F)NCCCn1ccnc1 readout_value="12.23 ± 1.10* g"
compound=Cl.O=C(/C=C/c1ccccc1F)NCCCN1CC[S+]([O-])CC1 readout_value="11.25 ± 0.94* g"
compound="CN1CCN(CCCNC(=O)/C=C/c2ccccc2F)CC1 [Compound 15, dihydrochloride]" readout_value="7.43 ± 1.63* g"
compound="O=C(/C=C/c1ccccc1F)NCCn1cncn1 [Compound 39, dihydrochloride]" readout_value="4.05 ± 0.48* g"
compound=O=C(/C=C/c1ccccc1F)NCCn1cccn1 readout_value="4.06 ± 0.52* g"
compound=O=C(/C=C/c1ccccc1F)NCCN1CCOCC1 readout_value="8.68 ± 1.91* g"
